Data provenance is paper PMC8037182.

# Test system: Hela cell line
# method_description: Cytotoxicity MTS assay, Hela cell line;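 note: blank control wells received 0.025% DMSO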
# Assay type: cell-based
# condition: Hela cell line, MTS, 0.5μM, first assay
Parameter OD490 value, Well 2: see the listing below.
assay_endpoint: OD490 value, Well 2

| compound | test_system | assay_endpoint | data_value |
| --- | --- | --- | --- |
| CCOC(=O)c1[nH]c(C2NC(=O)NC(C)=C2C(=O)Nc2ccc(Cl)cc2)c(C(=O)OCC)c1C (stereo not shown) | Hela cell line | OD490 value, Well 2 | 2.6393 |
| CCOc1ccccc1C1NC(=S)NC(C)=C1C(=O)Nc1ccc(Cl)cc1 (stereo not shown) | Hela cell line | OD490 value, Well 2 | 2.5147 |
| CCOC(=O)c1c(C2NC(=O)NC(C)=C2C(=O)Nc2ccccc2OC)[nH]c(C(=O)OC)c1C (stereo not shown) [D1] | Hela cell line | OD490 value, Well 2 | 2.5425 |
| CCOC(=O)c1c(C2NC(=O)NC(C)=C2C(=O)Nc2ccccc2)[nH]c(C(=O)OC)c1C (stereo not shown) | Hela cell line | OD490 value, Well 2 | 2.4004 |
